# Measurement target: α-glucosidase from baker's yeast (Saccharomyces cerevisiae, UniProt P53341)
# Sequence (P53341 whole entry): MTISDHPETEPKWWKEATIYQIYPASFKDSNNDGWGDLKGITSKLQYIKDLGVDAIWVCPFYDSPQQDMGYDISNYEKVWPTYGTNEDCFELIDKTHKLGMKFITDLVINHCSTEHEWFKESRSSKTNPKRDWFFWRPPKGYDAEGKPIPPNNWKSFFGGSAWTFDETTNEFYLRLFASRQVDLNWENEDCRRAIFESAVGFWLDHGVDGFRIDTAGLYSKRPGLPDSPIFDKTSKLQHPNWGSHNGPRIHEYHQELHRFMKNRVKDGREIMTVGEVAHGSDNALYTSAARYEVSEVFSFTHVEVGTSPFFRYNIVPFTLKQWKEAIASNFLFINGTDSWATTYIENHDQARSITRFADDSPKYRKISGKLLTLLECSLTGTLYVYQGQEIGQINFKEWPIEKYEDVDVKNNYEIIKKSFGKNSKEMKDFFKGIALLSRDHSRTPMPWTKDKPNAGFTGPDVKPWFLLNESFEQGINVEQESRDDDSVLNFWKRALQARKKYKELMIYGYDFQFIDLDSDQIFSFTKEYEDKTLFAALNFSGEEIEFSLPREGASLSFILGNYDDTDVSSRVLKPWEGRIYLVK
# Test description: In vitro α-glucosidase inhibition assay (PNPG substrate, absorbance at 405 nm)
# Assay type: biochemical
Entries and their measured pIC50 follow.
Note: pIC50 values are expressed as the negative base-10 logarithm of concentration in M.

Memo: C[C@@H]1CC[C@]2(C(=O)O)CC[C@]3(C)C(=CCC4[C@@]5(C)CC[C@H](OC(=O)c6ccco6)C(C)(C)C5CC[C@]43C)C2[C@H]1C (some centres unmarked) , reported pIC50: 5.60

Memo: C[C@@H]1CC[C@]2(C(=O)O)CC[C@]3(C)C(=CCC4[C@@]5(C)CC[C@H](OC(=O)c6ccc(Br)cc6F)C(C)(C)C5CC[C@]43C)C2[C@H]1C (some centres unmarked) , reported pIC50: 5.40

Memo: C[C@@H]1CC[C@]2(C(=O)O)CC[C@]3(C)C(=CCC4[C@@]5(C)CC[C@H](O)C(C)(C)C5CC[C@]43C)C2[C@H]1C (some centres unmarked) [UA, reference compound] , reported pIC50: 5.29

Memo: C[C@@H]1CC[C@]2(C(=O)O)CC[C@]3(C)C(=CCC4[C@@]5(C)CC[C@H](OC(=O)C(Cl)Cl)C(C)(C)C5CC[C@]43C)C2[C@H]1C (some centres unmarked) , reported pIC50: 5.17

Then this compound:
Memo: C[C@@H]1CC[C@]2(C(=O)O)CC[C@]3(C)C(=CCC4[C@@]5(C)CC[C@H](OC(=O)c6ccccc6)C(C)(C)C5CC[C@]43C)C2[C@H]1C (some centres unmarked) , reported pIC50: 5.30
